target of assay: full-length human ATR protein (Homo sapiens (Human), UniProt Q13535)
Sequence (Q13535 other isoform, or with tags, fused parts or gaps): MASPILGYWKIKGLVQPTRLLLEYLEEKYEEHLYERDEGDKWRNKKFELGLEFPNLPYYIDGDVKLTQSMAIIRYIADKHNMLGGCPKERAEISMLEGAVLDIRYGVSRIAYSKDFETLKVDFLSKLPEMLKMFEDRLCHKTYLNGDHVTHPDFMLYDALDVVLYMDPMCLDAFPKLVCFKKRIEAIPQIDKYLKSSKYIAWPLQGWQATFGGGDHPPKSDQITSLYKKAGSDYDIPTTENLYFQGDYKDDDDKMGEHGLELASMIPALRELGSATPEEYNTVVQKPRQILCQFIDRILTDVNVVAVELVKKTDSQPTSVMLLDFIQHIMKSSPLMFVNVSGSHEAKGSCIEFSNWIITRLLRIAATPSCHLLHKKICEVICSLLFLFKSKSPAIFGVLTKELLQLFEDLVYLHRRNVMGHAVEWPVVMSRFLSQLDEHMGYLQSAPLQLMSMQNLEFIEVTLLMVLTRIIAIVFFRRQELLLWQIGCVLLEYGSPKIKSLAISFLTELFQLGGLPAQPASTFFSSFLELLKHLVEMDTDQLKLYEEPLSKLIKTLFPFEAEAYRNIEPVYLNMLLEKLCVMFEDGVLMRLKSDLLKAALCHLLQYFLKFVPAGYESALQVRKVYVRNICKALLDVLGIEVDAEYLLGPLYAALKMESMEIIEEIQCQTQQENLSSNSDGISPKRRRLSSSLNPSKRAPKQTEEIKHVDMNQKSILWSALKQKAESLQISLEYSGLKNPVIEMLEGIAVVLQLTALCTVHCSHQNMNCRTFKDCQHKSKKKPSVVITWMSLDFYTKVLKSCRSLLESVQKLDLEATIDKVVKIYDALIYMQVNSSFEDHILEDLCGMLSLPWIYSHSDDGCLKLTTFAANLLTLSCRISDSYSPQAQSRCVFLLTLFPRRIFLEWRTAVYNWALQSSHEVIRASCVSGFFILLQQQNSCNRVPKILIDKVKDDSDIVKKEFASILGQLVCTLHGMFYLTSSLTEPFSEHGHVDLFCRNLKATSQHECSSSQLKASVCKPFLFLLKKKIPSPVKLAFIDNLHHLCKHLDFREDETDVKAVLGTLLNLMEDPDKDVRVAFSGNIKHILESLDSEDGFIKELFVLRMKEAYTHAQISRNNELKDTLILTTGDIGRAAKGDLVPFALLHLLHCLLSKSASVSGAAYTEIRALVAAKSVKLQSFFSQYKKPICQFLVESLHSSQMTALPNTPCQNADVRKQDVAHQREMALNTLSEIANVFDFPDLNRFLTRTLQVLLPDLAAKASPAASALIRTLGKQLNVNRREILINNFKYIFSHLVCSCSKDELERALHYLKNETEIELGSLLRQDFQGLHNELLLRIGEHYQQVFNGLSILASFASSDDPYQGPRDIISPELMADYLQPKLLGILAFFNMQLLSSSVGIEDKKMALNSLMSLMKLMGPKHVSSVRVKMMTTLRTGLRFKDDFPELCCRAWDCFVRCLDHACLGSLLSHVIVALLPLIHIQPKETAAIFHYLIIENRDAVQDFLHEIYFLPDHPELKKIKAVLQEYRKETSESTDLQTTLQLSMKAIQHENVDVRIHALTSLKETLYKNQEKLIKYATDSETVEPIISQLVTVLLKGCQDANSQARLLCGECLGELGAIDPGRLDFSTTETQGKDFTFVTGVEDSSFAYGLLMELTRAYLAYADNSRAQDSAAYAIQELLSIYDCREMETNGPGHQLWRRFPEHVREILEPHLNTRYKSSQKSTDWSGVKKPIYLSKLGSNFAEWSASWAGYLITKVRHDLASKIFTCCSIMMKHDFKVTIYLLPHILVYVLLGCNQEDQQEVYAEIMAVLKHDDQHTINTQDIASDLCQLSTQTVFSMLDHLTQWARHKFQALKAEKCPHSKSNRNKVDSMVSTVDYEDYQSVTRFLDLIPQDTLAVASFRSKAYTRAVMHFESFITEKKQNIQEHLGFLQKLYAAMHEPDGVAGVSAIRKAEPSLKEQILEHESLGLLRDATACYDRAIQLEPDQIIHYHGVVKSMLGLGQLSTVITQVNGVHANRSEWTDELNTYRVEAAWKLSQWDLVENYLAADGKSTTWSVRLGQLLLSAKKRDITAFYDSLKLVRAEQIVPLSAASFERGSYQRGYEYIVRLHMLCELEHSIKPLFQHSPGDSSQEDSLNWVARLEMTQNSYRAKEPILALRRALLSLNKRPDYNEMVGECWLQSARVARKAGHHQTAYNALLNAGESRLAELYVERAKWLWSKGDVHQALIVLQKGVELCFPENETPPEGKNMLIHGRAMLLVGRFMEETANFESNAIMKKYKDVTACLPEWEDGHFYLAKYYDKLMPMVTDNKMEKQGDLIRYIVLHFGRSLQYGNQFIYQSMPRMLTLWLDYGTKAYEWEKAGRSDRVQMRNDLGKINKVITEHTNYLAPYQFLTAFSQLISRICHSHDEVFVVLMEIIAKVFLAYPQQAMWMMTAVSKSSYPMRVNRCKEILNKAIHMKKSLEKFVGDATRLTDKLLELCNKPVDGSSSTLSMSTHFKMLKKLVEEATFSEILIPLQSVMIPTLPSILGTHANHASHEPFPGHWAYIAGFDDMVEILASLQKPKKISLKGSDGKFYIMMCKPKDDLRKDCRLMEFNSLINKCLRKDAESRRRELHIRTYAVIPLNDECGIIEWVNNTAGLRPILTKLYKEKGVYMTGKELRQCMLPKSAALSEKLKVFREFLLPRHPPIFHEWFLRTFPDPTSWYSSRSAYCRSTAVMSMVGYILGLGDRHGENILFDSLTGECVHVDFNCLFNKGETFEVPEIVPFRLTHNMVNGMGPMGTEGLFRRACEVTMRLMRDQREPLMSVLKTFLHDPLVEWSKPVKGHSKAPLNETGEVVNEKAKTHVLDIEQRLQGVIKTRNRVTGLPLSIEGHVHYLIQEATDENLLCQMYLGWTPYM
Sequence (Q8WXE1 other isoform, or with tags, fused parts or gaps partner): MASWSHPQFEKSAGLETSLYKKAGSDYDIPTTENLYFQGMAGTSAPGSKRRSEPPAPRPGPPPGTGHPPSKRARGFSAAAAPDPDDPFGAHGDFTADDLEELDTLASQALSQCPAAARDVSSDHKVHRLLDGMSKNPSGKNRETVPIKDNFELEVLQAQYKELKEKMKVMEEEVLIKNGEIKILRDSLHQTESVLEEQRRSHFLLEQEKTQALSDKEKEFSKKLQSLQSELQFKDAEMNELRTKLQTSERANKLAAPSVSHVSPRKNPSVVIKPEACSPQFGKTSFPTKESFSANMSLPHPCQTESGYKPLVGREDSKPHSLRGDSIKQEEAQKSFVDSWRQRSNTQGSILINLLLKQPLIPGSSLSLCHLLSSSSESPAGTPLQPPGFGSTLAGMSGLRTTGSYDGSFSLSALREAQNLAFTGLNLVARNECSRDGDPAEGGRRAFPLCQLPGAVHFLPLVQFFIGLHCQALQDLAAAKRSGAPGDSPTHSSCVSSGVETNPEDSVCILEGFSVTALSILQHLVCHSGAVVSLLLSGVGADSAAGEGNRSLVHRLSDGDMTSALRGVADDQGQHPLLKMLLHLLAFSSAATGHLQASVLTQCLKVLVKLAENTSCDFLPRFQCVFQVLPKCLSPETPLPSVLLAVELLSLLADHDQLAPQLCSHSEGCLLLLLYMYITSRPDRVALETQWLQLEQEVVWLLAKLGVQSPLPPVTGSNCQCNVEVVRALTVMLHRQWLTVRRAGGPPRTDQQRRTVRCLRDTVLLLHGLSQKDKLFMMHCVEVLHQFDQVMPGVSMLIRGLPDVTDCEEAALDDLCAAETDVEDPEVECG
assay name: Binding assay ATR (TR-FRET tracer displacement)
experimental context: tracer A, TR-FRET; read-out: ATR binding (tracer A) IC50
outcome measure: IC50

>  <molecule>
CN(c1ccccc1F)c1cc(N2CCOCC2)nc2c(-c3ccn[nH]3)nccc12 [Example 427]

>  <reported result>
112 nM

$$$$
>  <molecule>
O=C(NC1CC1)c1cccc(-c2cc(N3CCOCC3)nc3c(-c4ccn[nH]4)nccc23)c1 [Example 330]

>  <reported result>
91.3 nM

$$$$
>  <molecule>
CS(=O)(=O)c1cccc(-c2cc(N3CCOCC3)nc3c(-c4cc[nH]n4)nccc23)c1 [Example 15]

>  <reported result>
163 nM

$$$$
>  <molecule>
CN(c1cc(N2CCOCC2)nc2c(-c3ccn[nH]3)nccc12)C1CC1 [Example 435]

>  <reported result>
65.1 nM

$$$$
>  <molecule>
Fc1cncc(-c2cc(N3CCOCC3)nc3c(-c4ccn[nH]4)nccc23)c1 [Example 394]

>  <reported result>
119 nM

$$$$

* * *

target of assay: full-length human ATR protein (Homo sapiens (Human))
assay name: Binding assay ATR (TR-FRET tracer displacement)
experimental context: tracer B, TR-FRET; read-out: ATR binding (tracer B) IC50
Below, each entry is listed with its recorded IC50.
outcome measure: IC50

>  <compound>
CC(C)Oc1cc(N2CCOC[C@H]2C)nc2c(-c3cc[nH]n3)nccc12

>  <reported result>
23.3 nM

$$$$
>  <compound>
CC(C)S(=O)(=O)c1ccc(-c2cc(N3CCOC[C@H]3C)nc3c(-c4ccn[nH]4)nccc23)cc1

>  <reported result>
23.2 nM

$$$$
>  <compound>
CC(C)Oc1cc(N2CCOCC2)nc2c(-c3ccc[nH]3)nccc12

>  <reported result>
230 nM

$$$$
>  <compound>
CCOC(=O)N=S(C)(=O)c1cccc(-c2cc(N3CCOCC3)nc3c(-c4ccn[nH]4)nccc23)c1 (centres unmarked)

>  <reported result>
104 nM

$$$$
>  <compound>
C1=C(c2cc(N3CCOCC3)nc3c(-c4ccn[nH]4)nccc23)CCNC1

>  <reported result>
117 nM

$$$$

* * *

target of assay: full-length human ATR protein (Homo sapiens (Human), UniProt Q13535)
assay name: Binding assay ATR (TR-FRET tracer displacement)
experimental context: tracer A, TR-FRET; read-out: ATR binding (tracer A) IC50
pIC50: −log10 of the molar value.

>  <compound>
CC(C)(C)NC(=O)c1cncc(-c2cc(N3CCOCC3)nc3c(-c4ccn[nH]4)nccc23)c1

>  <target of assay>
full-length human ATR protein (Homo sapiens (Human), UniProt Q13535)

>  <pIC50>
6.21

$$$$
>  <compound>
CN(c1cccc(F)c1)c1cc(N2CCOCC2)nc2c(-c3ccn[nH]3)nccc12

>  <target of assay>
full-length human ATR protein (Homo sapiens (Human), UniProt Q13535)

>  <pIC50>
6.62

$$$$
>  <compound>
C[C@@H]1COCCN1c1cc(N2CCCC2)c2ccnc(-c3ccn[nH]3)c2n1

>  <target of assay>
full-length human ATR protein (Homo sapiens (Human), UniProt Q13535)

>  <pIC50>
6.66

$$$$
>  <compound>
O=c1cc(-c2cc(N3CCOCC3)nc3c(-c4ccn[nH]4)nccc23)cc[nH]1

>  <target of assay>
full-length human ATR protein (Homo sapiens (Human), UniProt Q13535)

>  <pIC50>
6.33

$$$$
>  <compound>
c1cc(-c2nccc3c(-c4ccc5cc[nH]c5c4)cc(N4CCOCC4)nc23)[nH]n1

>  <target of assay>
full-length human ATR protein (Homo sapiens (Human), UniProt Q13535)

>  <pIC50>
6.48

$$$$
>  <compound>
COc1cc(OC)cc(-c2cc(N3CCOCC3)nc3c(-c4ccn[nH]4)nccc23)c1

>  <target of assay>
full-length human ATR protein (Homo sapiens (Human), UniProt Q13535)

>  <pIC50>
6.72

$$$$
>  <compound>
c1cc(-c2nccc3c(OCC4CCCO4)cc(N4CCOCC4)nc23)[nH]n1 (stereo not shown)

>  <target of assay>
full-length human ATR protein (Homo sapiens (Human), UniProt Q13535)

>  <pIC50>
6.58

$$$$

* * *

target of assay: full-length human ATR protein (Homo sapiens (Human), UniProt Q13535)
assay name: Binding assay ATR (TR-FRET tracer displacement)
experimental context: tracer A, TR-FRET; read-out: ATR binding (tracer A) IC50
outcome measure: log10(IC50) (log10 of the value in nM)

>  <input smiles>
O=C(NC1CC1)c1ccc(-c2cc(N3CCOCC3)nc3c(-c4ccn[nH]4)nccc23)cc1

>  <outcome measure>
log10(IC50)

>  <reported result>
1.92

$$$$
>  <input smiles>
C[C@@H]1COCCN1c1cc(N(C)CC(C)(C)C)c2ccnc(-c3ccn[nH]3)c2n1

>  <outcome measure>
log10(IC50)

>  <reported result>
0.73

$$$$
>  <input smiles>
COc1ccc(Sc2cc(N3CCOCC3)nc3c(-c4ccn[nH]4)nccc23)cc1

>  <outcome measure>
log10(IC50)

>  <reported result>
1.73

$$$$
>  <input smiles>
Cc1ccc(-c2cc(N3CCOC[C@H]3C)nc3c(-c4ccn[nH]4)nccc23)cn1

>  <outcome measure>
log10(IC50)

>  <reported result>
1.18

$$$$
>  <input smiles>
c1cc(-c2nccc3c(-c4ccsc4)cc(N4CCOCC4)nc23)[nH]n1

>  <outcome measure>
log10(IC50)

>  <reported result>
2.13

$$$$
>  <input smiles>
c1ccc(-c2ccc(-c3cc(N4CCOCC4)nc4c(-c5ccn[nH]5)nccc34)cc2)cc1

>  <outcome measure>
log10(IC50)

>  <reported result>
2.58

$$$$
